Tested on: Escherichia coli
procedure details: in vitro antibacterial evaluation, MIC by broth dilution
Type: cell-based
condition notes: 18 hours at 35° C.
quantity measured: MIC Escherichia coli (ATCC 25922) (µg/mL)

- CCCCCCCN1CC(C(O)C2NC(=O)C(C(O)C3CNC(=N)N3)NC(=O)C(Cc3ccc(OC4OC(CO)C(OC5OC6COC7(OC6C(O)C5O)C5CC6CC(C5)CC7C6)C(O)C4O)cc3)NC(=O)C(C(C)c3ccccc3)NC(=O)CNC(=O)C(CO)NC2=O)N(C2OC(CO)C(O)C(O)C2O)C1=N (stereo not drawn): 64
- N=C1NCC(C(O)C2NC(=O)C(Cc3ccc(OC4OC(CO)C(OC5OC6COC(Cc7ccccc7)OC6C(O)C5O)C(O)C4O)cc3)NC(=O)C(CC3CCCCC3)NC(=O)CNC(=O)C(CO)NC(=O)C(C(O)C3CNC(=N)N3C3OC(CO)C(O)C(O)C3O)NC2=O)N1 (stereo not drawn): 32
- CC(c1ccccc1)C1NC(=O)CNC(=O)C(CO)NC(=O)C(C(O)C2CNC(=N)N2C2OC(CO)C(O)C(O)C2O)NC(=O)C(C(O)C2CNC(=N)N2)NC(=O)C(Cc2ccc(OC3OC(CO)C(OC4OC5COC6(CC7CCC6(C)C7(C)C)OC5C(O)C4O)C(O)C3O)cc2)NC1=O (stereo not drawn) [Example 215]: 32

* * *

Test system: Staphylococcus sp.
procedure details: in vitro antibacterial evaluation, MIC by broth dilution
Type: cell-based
condition notes: strain GC 4551; broth dilution, 18 hours at 35° C.
quantity measured: MIC Coagulase Negative Staphylococcus (GC 4551) (µg/mL)

• CC(c1ccccc1)C1NC(=O)CNC(=O)C(CO)NC(=O)C(C(O)C2CNC(=N)N2C2OC(CO)C(O)C(O)C2O)NC(=O)C(C(O)C2CNC(=N)N2)NC(=O)C(Cc2ccc(OC3OC(CO)C(OC4OC5COC6(OC5C(O)C4O)C4CCCC6CCC4)C(O)C3O)cc2)NC1=O (centres unmarked) = 2
• CC(c1ccccc1)C1NC(=O)CNC(=O)C(CO)NC(=O)C(C(O)C2CNC(=N)N2C2OC(CO)C(O)C(O)C2O)NC(=O)C(C(O)C2CNC(=N)N2)NC(=O)C(Cc2ccc(OC3OC(CO)C(OC4OC5COC6(OC5C(O)C4O)C(C)CCCC6C)C(O)C3O)cc2)NC1=O (centres unmarked) = 1
• CC(c1ccccc1)C1NC(=O)CNC(=O)C(CO)NC(=O)C(C(O)C2CNC(=N)N2C2OC(CO)C(O)C(O)C2O)NC(=O)C(C(O)C2CNC(=N)N2)NC(=O)C(Cc2ccc3oc(-c4ccc(Br)cc4)nc3c2)NC1=O (centres unmarked) = 8
• CC(c1ccccc1)C1NC(=O)CNC(=O)C(CO)NC(=O)C(C(O)C2CNC(=N)N2C2OC(CO)C(O)C(O)C2O)NC(=O)C(C(O)C2CNC(=N)N2)NC(=O)C(Cc2ccc3oc(SCc4ccccc4)nc3c2)NC1=O (centres unmarked) = 8
• CC(C)=CCCC(C)=CCOc1ccc(C2OCC3OC(OC4C(CO)OC(Oc5ccc(CC6NC(=O)C(C(C)c7ccccc7)NC(=O)CNC(=O)C(CO)NC(=O)C(C(O)C7CNC(=N)N7C7OC(CO)C(O)C(O)C7O)NC(=O)C(C(O)C7CNC(=N)N7)NC6=O)cc5)C(O)C4O)C(O)C(O)C3O2)cc1 (centres unmarked) = 4
• N=C1NCC(C(O)C2NC(=O)C(Cc3ccc(OC4OC(CO)C(OC5OC6COC(Cc7ccccc7)OC6C(O)C5O)C(O)C4O)cc3)NC(=O)C(CC3CCCCC3)NC(=O)CNC(=O)C(CO)NC(=O)C(C(O)C3CNC(=N)N3C3OC(CO)C(O)C(O)C3O)NC2=O)N1 (centres unmarked) = 2
• CC(c1ccccc1)C1NC(=O)CNC(=O)C(CO)NC(=O)C(C(O)C2CNC(=N)N2C2OC(CO)C(O)C(O)C2O)NC(=O)C(C(O)C2CNC(=N)N2)NC(=O)C(Cc2ccc3oc(-c4ccc(C(C)(C)C)cc4)nc3c2)NC1=O (centres unmarked) = 4

* * *

procedure details: anatomic pathology (histopathology of heart and kidney) in mice
Format: in vivo
condition notes: CD-1 mice, 20 mg/kg intravenously daily for 9 days, necropsy day 10, microscopic histopathology
Numbered stars: 1 amine (or outer) side, 2 acyl side, 3 side chain; on linkers, the order of the positions; unused ones are H or OH. Square brackets hold non-standard residues; d marks the D form. Peptide text beside a SMILES is read from it. * marks the point of attachment. ξ: configuration not given here. X1 = N=C1NCC(C(O)C(N[*:1])C(=O)[*:2])N1C1OC(CO)C(O)C(O)C1O; ξEnduracididine(βξ-OH,4'ξ) = N=C1NCC(C(O)C(N)C(=O)O)N1; X2 = OCC1OC(OC2C(CO)OC(*)C(O)C2O)C(O)C(O)C1O; Cha = N[CH](CC1CCCCC1)C(=O)O
quantity measured: Anatomical Pathology (Day 10), Heart

- N=C1NCC(C(O)C2NC(=O)C(Cc3ccc(OC4OC(CO)C(OC5OC(CO)C(O)C(O)C5O)C(O)C4O)cc3)NC(=O)C(CC3CCCCC3)NC(=O)CNC(=O)C(CO)NC(=O)C(C(O)C3CNC(=N)N3C3OC(CO)C(O)C(O)C3O)NC2=O)N1 (stereo not drawn) [Example 263] (cyclo(G[Cha]Y(X2)[ξEnduracididine(βξ-OH,4'ξ)][X1]S); configuration not given here): +
- CC(c1ccccc1)C1NC(=O)CNC(=O)C(CO)NC(=O)C(C(O)C2CNC(=N)N2C2OC(CO)C(O)C(O)C2O)NC(=O)C(C(O)C2CNC(=N)N2)NC(=O)C(Cc2ccc(OC3OC(CO)C(OC4OC5COC(Cc6ccccc6)OC5C(O)C4O)C(O)C3O)cc2)NC1=O (stereo not shown): +++
- CC(c1ccccc1)C1NC(=O)CNC(=O)C(CO)NC(=O)C(C(O)C2CNC(=N)N2C2OC(CO)C(O)C(O)C2O)NC(=O)C(C(O)C2CNC(=N)N2)NC(=O)C(Cc2ccc(OC3OC(CO)C(OC4OC5COC(c6ccc(C(=O)O)cc6)OC5C(O)C4O)C(O)C3O)cc2)NC1=O (stereo not shown): 0
- CC(c1ccccc1)C1NC(=O)CNC(=O)C(CO)NC(=O)C(C(O)C2CN(Cc3ccc(C(=O)O)cc3)C(=N)N2C2OC(CO)C(O)C(O)C2O)NC(=O)C(C(O)C2CNC(=N)N2)NC(=O)C(Cc2ccc(OC3OC(CO)C(OC4OC(CO)C(O)C(O)C4O)C(O)C3O)cc2)NC1=O (stereo not shown): 0
- CC(c1ccccc1)C1NC(=O)CNC(=O)C(CO)NC(=O)C(C(O)C2CN(Cc3ccc4ccccc4c3)C(=N)N2C2OC(CO)C(O)C(O)C2O)NC(=O)C(C(O)C2CNC(=N)N2)NC(=O)C(Cc2ccc(OC3OC(CO)C(OC4OC5COC6(OC5C(O)C4O)C4CC5CC(C4)CC6C5)C(O)C3O)cc2)NC1=O (stereo not shown): 0
- CC(c1ccccc1)C1NC(=O)CNC(=O)C(CO)NC(=O)C(C(O)C2CNC(=N)N2C2OC(CO)C(O)C(O)C2O)NC(=O)C(C(O)C2CNC(=N)N2)NC(=O)C(Cc2ccc(OC3OC(CO)C(OC4OC5COC(c6ccccc6)OC5C(O)C4O)C(O)C3O)cc2)NC1=O (stereo not shown): +++
- CC(c1ccccc1)C1NC(=O)CNC(=O)C(CO)NC(=O)C(C(O)C2CNC(=N)N2C2OC(CO)C(O)C(O)C2O)NC(=O)C(C(O)C2CNC(=N)N2)NC(=O)C(Cc2ccc(OC3OC(CO)C(OC4OC5COC6(OC5C(O)C4O)C4CC5CC(C4)CC6C5)C(O)C3O)cc2)NC1=O (stereo not shown): +++

* * *

Test system: Staphylococcus sp.
procedure details: in vitro antibacterial evaluation, MIC by broth dilution
Format: cell-based
condition notes: broth dilution, 18 hours at 35° C.
Reported MIC Staphylococcus aureus (GC 4544) values for a set of molecules
quantity measured: MIC Staphylococcus aureus (GC 4544) (µg/mL)

* CC(c1ccccc1)C1NC(=O)CNC(=O)C(CO)NC(=O)C(C(O)C2CNC(=N)N2C2OC(CO)C(O)C(O)C2O)NC(=O)C(C(O)C2CNC(=N)N2)NC(=O)C(Cc2ccc(OC3OC(CO)C(OC4OC5COC(C67CC8CC(CC(C8)C6)C7)OC5C(O)C4O)C(O)C3O)cc2)NC1=O (stereo not shown) [Example 127] | 4
* CC(C)CC(=O)OC1C(OC2C(CO)OC(Oc3ccc(CC4NC(=O)C(C(C)c5cccc(F)c5)NC(=O)CNC(=O)C(CO)NC(=O)C(C(O)C5CNC(=N)N5C5OC(CO)C(O)C(O)C5O)NC(=O)C(C(O)C5CNC(=N)N5)NC4=O)cc3)C(O)C2O)OC(CO)C(O)C1O (stereo not shown) [Example 264a] | 8

* * *

Test system: Staphylococcus sp.
procedure details: in vitro antibacterial evaluation, MIC by broth dilution
Format: cell-based
condition notes: broth dilution, 18 hours at 35° C.; strain GC 4545
Reported MIC Staphylococcus aureus (GC 4545) values for a set of compounds
quantity measured: MIC Staphylococcus aureus (GC 4545) (µg/mL)

• CC(c1ccccc1)C1NC(=O)CNC(=O)C(CO)NC(=O)C(C(O)C2CNC(=N)N2C2OC(CO)C(O)C(O)C2O)NC(=O)C(C(O)C2CNC(=N)N2)NC(=O)C(Cc2ccc(OC3OC(CO)C(OC4OC(CO)C(O)C5OC(CC67CC8CC(CC(C8)C6)C7)OC45)C(O)C3O)cc2)NC1=O (stereo not shown) = 2
• CCC(CC)C1OCC2OC(OC3C(CO)OC(Oc4ccc(CC5NC(=O)C(C(C)c6ccccc6)NC(=O)CNC(=O)C(CO)NC(=O)C(C(O)C6CNC(=N)N6C6OC(CO)C(O)C(O)C6O)NC(=O)C(C(O)C6CNC(=N)N6)NC5=O)cc4)C(O)C3O)C(O)C(O)C2O1 (stereo not shown) = 1
• CC(c1ccccc1)C1NC(=O)CNC(=O)C(CO)NC(=O)C(C(O)C2CNC(=N)N2C2OC(CO)C(O)C(O)C2O)NC(=O)C(C(O)C2CNC(=N)N2)NC(=O)C(Cc2ccc(OC3OC(CO)C(OC4OC5COC(CC6CCCCC6)OC5C(O)C4O)C(O)C3O)cc2)NC1=O (stereo not shown) = 2
